All figures here come from patent US20110311446A1.

# study-target: T1, cMet-Fc fusion protein (human, UniProt P08581 25-932)
# T1 construct: extracellular domain; also called soluble cMet-Fc fusion protein; cMet-Fc (R&D Systems); not shown: Fc part, not described
# T1 sequence (P08581 25-932): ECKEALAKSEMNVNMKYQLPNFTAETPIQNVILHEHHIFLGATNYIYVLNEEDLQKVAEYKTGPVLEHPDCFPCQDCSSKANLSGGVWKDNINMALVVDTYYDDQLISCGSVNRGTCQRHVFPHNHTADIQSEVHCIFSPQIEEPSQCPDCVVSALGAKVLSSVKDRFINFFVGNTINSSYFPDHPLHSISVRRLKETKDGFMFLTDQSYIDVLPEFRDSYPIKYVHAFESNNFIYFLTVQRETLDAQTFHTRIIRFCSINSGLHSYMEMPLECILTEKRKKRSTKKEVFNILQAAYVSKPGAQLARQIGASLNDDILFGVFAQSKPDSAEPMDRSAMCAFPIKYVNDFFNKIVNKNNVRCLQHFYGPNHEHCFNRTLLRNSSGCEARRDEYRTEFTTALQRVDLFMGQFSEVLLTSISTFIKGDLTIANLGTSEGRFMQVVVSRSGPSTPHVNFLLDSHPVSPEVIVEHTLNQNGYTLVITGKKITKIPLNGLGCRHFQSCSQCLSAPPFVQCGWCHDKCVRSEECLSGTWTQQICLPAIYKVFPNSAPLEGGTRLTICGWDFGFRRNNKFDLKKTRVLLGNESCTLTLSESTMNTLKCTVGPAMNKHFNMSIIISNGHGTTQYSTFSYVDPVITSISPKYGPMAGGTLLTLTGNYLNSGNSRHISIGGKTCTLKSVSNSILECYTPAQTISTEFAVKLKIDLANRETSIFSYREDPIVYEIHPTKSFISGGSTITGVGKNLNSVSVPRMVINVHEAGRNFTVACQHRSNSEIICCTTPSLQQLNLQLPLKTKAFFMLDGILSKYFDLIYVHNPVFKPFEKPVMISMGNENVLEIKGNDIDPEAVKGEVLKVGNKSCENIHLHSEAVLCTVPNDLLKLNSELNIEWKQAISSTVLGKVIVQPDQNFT
# experimental-details: phage protein ELISA, cMet-Fc vs TRAIL-Fc

[
  {
    "binder": "GSHHTCLDGFAGWRCTEVAP (on M13 phage) [peptide-displaying phage 546-E02]",
    "fold over background / fold": 40.4
  },
  {
    "binder": "AGFWDCGWMMQDCHMHGT (on M13 phage) [peptide-displaying phage 470-C02]",
    "fold over background / fold": 36.9
  },
  {
    "binder": "AGQFYCSGPPTFQCIMIGT [peptide-displaying phage 550-F11]",
    "fold over background / fold": 1.4
  },
  {
    "binder": "GSMLGCLFEHQNKYDCYVLAP (on M13 phage) [peptide-displaying phage 443-D04]",
    "fold over background / fold": 3
  }
]
